Recorded values, source PubChem BioAssay (EPA / NIEHS).

Read-out: Urokinase-type plasminogen activator receptor (uPAR), PLAUR (gene 5329)
experiment: BSK_CASM3C_uPAR: BioMAP Diversity Plus: CASM3C Assay for Urokinase-type plasminogen activator receptor (uPAR) Biomarker Activity (AID 2283054);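 also: cell-surface uPAR protein level quantified by ELISA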
conditions: primary human coronary artery smooth muscle cells; actives raise or lower the signal
Activity calls are given as the source filed them. The calls were made as follows: active = hit-call score of the fitted dose curve at least 0.9, where 1 is the maximum; inactive = score below 0.9.

smiles.input	outcome
CC(C)(O)C(=O)Nc1ccc([N+](=O)[O-])c(C(F)(F)F)c1	inactive
ClC1=C(Cl)[C@]2(Cl)[C@@H]3[C@@H]4C[C@@H]([C@H]5O[C@@H]45)[C@@H]3[C@@]1(Cl)C2(Cl)Cl	inactive
CCCCCCOC(=O)c1ccccc1C(=O)OCCCCCC	inactive
